test system: Zika virus NS2B-NS3 protease (unlinked complex); assay: Primary screen GU Rhodamine qHTS for Zika virus inhibitors: Unlinked NS2B-NS3 protease assay (AID 1347159); conditions: Recombinant ZIKV NS2B-NS3 protease, Rhodamine110 substrate fluorescence; series mostly up to 107 µM; also: nearly all actives have a fitted effect of over 60% in size
Records with an inconclusive call do not appear. The source made the active and inactive calls. Calls follow the shape of the dose curve; as a rule, active = well fitted inhibition curve with a large enough effect; inconclusive = small, poorly fitted or top-dose-only effect; inactive = no such curve, though single readings can be large or run the other way.
Log the outcome using a class from TRUE for active, FALSE for inactive

Here are 5 molecules together with their reported answers.
>  <molecule>
CC1(C)CC[C@]2(C(=O)O)CC[C@]3(C)C(=CCC4[C@@]5(C)C[C@@H](O)[C@H](O)C(CO)(CO)C5CC[C@]43C)C2[C@@H]1O (stereo partly specified)

>  <assigned category>
FALSE

$$$$
>  <molecule>
CCNc1nc(Nc2cc(F)c(C(=O)N3CCOCC3)cc2OC)ncc1C(F)(F)F

>  <assigned category>
FALSE

$$$$
>  <molecule>
O=C(Nc1ccccc1C(=O)NC1CCCCNC1=O)c1cc2ccccc2s1 (stereo unspecified)

>  <assigned category>
TRUE

$$$$
>  <molecule>
CCOc1ccc(-n2c([C@@H](C)N(Cc3cccnc3)C(=O)Cc3ccc(OC(F)(F)F)cc3)nc3ncccc3c2=O)cc1

>  <assigned category>
FALSE

$$$$
>  <molecule>
CC(CCC1(O)OC2CC3C4CC=C5C[C@@H](O[C@@H]6O[C@H](CO)[C@@H](O[C@@H]7O[C@@H](C)[C@H](O)[C@@H](O)[C@H]7O)[C@H](O)[C@H]6O[C@@H]6O[C@@H](C)[C@H](O)[C@@H](O)[C@H]6O)CC[C@]5(C)C4CC[C@]3(C)[C@@]2(O)[C@@H]1C)CO[C@@H]1O[C@H](CO)[C@@H](O)[C@H](O)[C@H]1O (stereo partly specified)

>  <assigned category>
FALSE

$$$$

### Prompt Check the results log: what was the call for `CCC(=C(c1ccc(OCCN2CCCC2)cc1)c1ccc(OCCN2CCCC2)cc1)c1ccccc1` ?
### Response FALSE

### Prompt Check the results log: what was the call for COC1CC(O[C@H]2CC[C@]3(C)C4CC[C@@]5(C)C(=O)[C@]4(CC[C@@H]3C2)CC[C@@H]5C2=CC(=O)OC2)OC(C)C1OC1OC(COC2OC(CO)C(O)C(O)C2O)C(O)C(O)C1O (stereo partly specified) ?
### Response FALSE

### Prompt Check the results log: what was the call for `O=C(NCCCN1CCC2(CC1)OCc1ccccc12)[C@H]1CCCN1Cc1ccccc1` ?
### Response FALSE

### Prompt Check the results log: what was the call for `CC(C)CCNc1ncccc1C(=O)N1CCN(Cc2ccccc2)CC1` ?
### Response FALSE

### Prompt Check the results log: what was the call for Cc1nc2ccc(CN(C)c3ccc(C(=O)NC(CCC(=O)O)C(=O)O)s3)cc2c(=O)[nH]1 (stereo unspecified) ?
### Response FALSE

### Prompt Check the results log: what was the call for `O=C(NCCCN1CCOCC1)c1cnn2c(-c3ccccc3)cc(-c3ccccc3)nc12` ?
### Response FALSE

### Prompt Check the results log: what was the call for `CC(C)S(=O)(=O)NC[C@@H]1CC(c2ccc(N3CCCC3)c(F)c2)=NO1` ?
### Response FALSE

### Prompt Check the results log: what was the call for CCC(C)CC(=O)OC1C(=O)C(CO)=CC(O)C1C(C)C (stereo unspecified) ?
### Response FALSE

### Prompt Check the results log: what was the call for `CN(C)N(C)C(=O)[C@@]1(Cc2ccccc2)CCCN(C(=O)[C@@H](Cc2c[nH]c3ccccc23)NC(=O)C(C)(C)N)C1` ?
### Response FALSE

### Prompt Check the results log: what was the call for CC(C)(F)CC(NC(c1ccc(-c2ccc(S(C)(=O)=O)cc2)cc1)C(F)(F)F)C(=O)NC1(C#N)CC1 (stereo unspecified) ?
### Response FALSE

### Prompt Check the results log: what was the call for `O=C(NC[C@H]1CN(c2ccc(N3CCOCC3=O)cc2)C(=O)O1)c1ccc(Cl)s1` ?
### Response FALSE
